Origin of values: the RNAGym collection of RNA variant scans (doi:10.7554/elife.90254)

self-cleavage: recorded values
B1: LINE1-mini (parent)
chain: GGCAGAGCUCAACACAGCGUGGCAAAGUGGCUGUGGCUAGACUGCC

# Variants of: B1
# method.notes: self-cleavage, relative activity (ratio to wild type); higher = more cleavage; in vitro, sequencing; the parent is a self-cleaving ribozyme
Form rule: numeric answer, no unit written next to it.

// solved cases for self-cleavage follow
1. GGCAGAGCUAAACACAGCGUGGCAAAGCGGCUGUGGCUAGACUGCC [C10A U28C] :: 0.07
2. GGCAGAGCUCAACAAAGCGUGGCAAAGUGGCUGUGGCCAGACUGCC [C15A U38C] :: 0.07

## Input // query self-cleavage value for entry GGCACAGCUCAACACAGCGUGACAAAGUGGCUGUGGCUAGACUGCC [G5C G22A]
## Output 0.08

## Input And GGCAGAGCUCAACACAGCGUGGCAAAGUGGCUGUGGCUCGACUGUC [A39C C45U] ?
## Output 0.24

## Input And GGCACAGCUCAACACGGCGUGGCAAAGUGGCUGUGGCUAGACUGCC [G5C A16G] ?
## Output 0.04

## Input And GGCAGAGCUCAACACAGCGUGGCAAAGUGGCUGAGGCUAGUCUGCC [U34A A41U] ?
## Output 0.05

## Input And GGCAGAGCUCAACACAGCGUGGGAAAGUGGCUGUGGGUAGACUGCC [C23G C37G] ?
## Output 0.01

## Input And GGCAGAGCUCAACUCAGCAUGGCAAAGUGGCUGUGGCUAGACUGCC [A14U G19A] ?
## Output 0.53

## Input And GGCAGAGCUAAACACAGCGUGGCAAAGUGGCUGUGGCUAGACUGUC [C10A C45U] ?
## Output 0.07

## Input And GGCGGAGCUCAACACAGCGUGGCAAAGUGGCUGUGGCUAGACUGAC [A4G C45A] ?
## Output 0.45

## Input And GGCCGAGCUCAACACAGCGCGGCAAAGUGGCUGUGGCUAGACUGCC [A4C U20C] ?
## Output 0.05
